All values here come from ChEMBL document CHEMBL1127222.

experimental.details: Half life period in the presence of alpha-chymotrypsin at the concentration of 0.25 mg/ml
Type: ADME
test.readout: half-life (h)

P. CC(=O)N(CO)C(Cc1ccccc1)C(=O)NCc1ccccc1 (centres undefined)
Q. CC(=O)NC(Cc1ccccc1)C(N)=O (centres undefined)
q: Param metric = half-life; output whichever of P , Q has the minimum value. Write down the label of the entry you select.
a: P
(P: 1.08 h, Q: 9.6 h)

---

experimental.details: Half life period in the presence of alpha-chymotrypsin at the concentration of 1.0 mg/mL
Format: ADME
test.readout: half-life (h)

compound	numeric.readout
CC(=O)NC(Cc1ccccc1)C(=O)NCc1ccccc1 (centres undefined)	3.9

A. CC(=O)N(CO)C(Cc1ccccc1)C(N)=O (centres undefined)
B. CC(=O)N(CO)C(Cc1ccccc1)C(=O)NCc1ccccc1 (centres undefined)
C. CC(=O)NC(Cc1ccccc1)C(N)=O (centres undefined)
q: Thanks in advance: please rank these 3 entries by half-life, highest to lowest. List the labels according to the requested ordering.
a: C, B, A
